Listed below: IC50 values for each entry.
# system.tested: N-36/C-34 complex (HIV-1 gp41 core) (Human immunodeficiency virus type 1 group M subtype B)
# Construct: Peptides derived from the NHR and CHR regions of gp41, designated N- and C-peptides
# assay.details: biochemical

Worked cases, IC50 given:
COC(=O)c1cc(C(=O)OC)cc(N(C(=O)Nc2ccc(Cl)c(Cl)c2)C(C)c2nc3ccccc3c(=O)n2Cc2ccccc2)c1 (stereo not shown) ... > 152 µM
O=C(Nc1cc([N+](=O)[O-])ccc1-c1ccc([N+](=O)[O-])cc1)c1ccc([N+](=O)[O-])cc1Cl ... > 226 µM
Cc1ccc(N(C(=O)Nc2ccccc2)C(C)c2nc3ccccc3c(=O)[nH]2)c(C)c1 (stereo not shown) ... > 242 µM
C/C(=N/OC(=O)NS(=O)(=O)c1ccc(C)cc1)c1cc2ccccc2oc1=O ... > 250 µM
Cc1ccc(N(C(=O)Nc2cccc(Cl)c2)C(C)c2nc3ccccc3c(=O)[nH]2)c(C)c1 (stereo not shown) ... > 224 µM
Cc1ccc(N=Nc2c(S(=O)(=O)O)cc3cc(S(=O)(=O)O)cc(Nc4nc(Cl)nc(Nc5ccccc5)n4)c3c2O)c(S(=O)(=O)O)c1 ... 4.4 µM

I am curious: what IC50 value has been reported for C=CC1C[N@@]2CCC1C[C@@H]2C(OC(=O)c1ccc(OC)cc1)c1ccnc2ccccc12 (stereo partly shown) ?
> 233 µM

----------
Listed below: log10(CC50) values for each entry.
# assay.details: In vitro cytotoxicity, XTT
# Format: cell-based
# applied.conditions: human; 50% cytotoxic concentration, MT-2 cells, no virus; read-out: CC50 ± SD
Heads up: the numbers are on a log10 scale; they represent CC50 in µg/mL.

C/C(=N/OC(=O)NS(=O)(=O)c1ccc(C)cc1)c1cc2ccccc2oc1=O ... 2.46

I am curious: what log10(CC50) value has been reported for Cc1ccc(N(C(=O)Nc2ccc(Cl)c(Cl)c2)C(C)c2nc3ccccc3c(=O)[nH]2)c(C)c1 (centres unmarked) ?
1.59

I am curious: what log10(CC50) value has been reported for `O=P(CCP(c1ccccc1)c1ccccc1)(c1ccccc1)c1ccccc1` ?
1.46

I am curious: what log10(CC50) value has been reported for `O=C(Nc1cc([N+](=O)[O-])ccc1-c1ccc([N+](=O)[O-])cc1)c1ccc([N+](=O)[O-])cc1Cl` ?
1.67

----------
Listed below: IC50 values for each entry.
# system.tested: N-36/C-34 complex (HIV-1 gp41 core) (Human immunodeficiency virus type 1 group M subtype B, UniProt P04578)
# Construct: Peptides derived from the NHR and CHR regions of gp41, designated N- and C-peptides
# Sequence (P04578 546-581, one chain of several): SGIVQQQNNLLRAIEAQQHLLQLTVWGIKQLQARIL
# assay.details: biochemical

Worked cases, IC50 given:
O=C(Nc1ccc(Cl)c(Cl)c1)O/N=C(/c1ccccc1)c1ccc(-c2ccccc2)cc1 [ADS-J10] ... > 217 µM
O=P(CCP(c1ccccc1)c1ccccc1)(c1ccccc1)c1ccccc1 [ADS-J16] ... > 241 µM
CC(Nc1ccccc1Cl)c1nc2ccccc2c(=O)n1Cc1ccccc1 (stereo not drawn) [ADS-J14] ... > 256 µM
CCC1C[N@@]2CCC1C[C@@H]2C(OC(=O)c1ccccc1Cl)c1ccnc2ccc(OC)cc12 (stereo partly drawn) [ADS-J7] ... > 215 µM
Cc1ccc(N(C(=O)Nc2ccc(Cl)c(Cl)c2)C(C)c2nc3ccccc3c(=O)[nH]2)c(C)c1 (stereo not drawn) [ADS-J13] ... > 208 µM

Below: the item to evaluate.
I am curious: what IC50 value has been reported for CC(c1nc2ccc(Cl)cc2c(=O)n1Cc1ccccc1)N(C(=O)c1ccc([N+](=O)[O-])cc1)c1ccc(F)cc1 (stereo not drawn) [ADS-J5] ?
> 180 µM

----------
# system.tested: N-36/C-34 complex (HIV-1 gp41 core) (Human immunodeficiency virus type 1 group M subtype B, UniProt P04578)
# Construct: Peptides derived from the NHR and CHR regions of gp41, designated N- and C-peptides; made in house; host or cells: chemical synthesis (solid-phase FMOC)
# assay.details: biochemical
# Type: binding
# applied.conditions: no concentration stated
measure.name: Inhibitory activity on complex formation by N-36 and C-34 (in words)

O=S(=O)(O)c1ccc(-c2c3nc(c(-c4ccc(S(=O)(=O)O)cc4)c4ccc([nH]4)c(-c4ccc(S(=O)(=O)O)cc4)c4nc(c(-c5ccc(S(=O)(=O)O)cc5)c5ccc2[nH]5)C=C4)C=C3)cc1 [MTSPP, meso-tetra(4-sulphonatophenyl)porphyrin, reference compound] ... some inhibitory activity
C=Cc1c(C)c2cc3nc(c(CC(=O)O)c4[nH]c(cc5nc(cc1[nH]2)C(C)=C5CC)c(C)c4C(=O)O)[C@@H](CCC(=O)O)[C@@H]3C [chlorin e6, reference compound] ... some inhibitory activity
O=C(O)c1ccc(-c2c3nc(c(-c4ccc(C(=O)O)cc4)c4ccc([nH]4)c(-c4ccc(C(=O)O)cc4)c4nc(c(-c5ccc(C(=O)O)cc5)c5ccc2[nH]5)C=C4)C=C3)cc1 [MTCPP, meso-tetra(4-carboxyphenyl)porphyrin, reference compound] ... some inhibitory activity

----------
Listed below: CC50 values for each entry.
# assay.details: In vitro cytotoxicity, XTT
# Format: cell-based
# applied.conditions: human
Report the value in µg/mL with no unit label.

I am curious: what CC50 value has been reported for C=CC1C[N@@]2CCC1C[C@@H]2C(OC(=O)c1ccc(OC)cc1)c1ccnc2ccccc12 (some centres unmarked) [ADS-J4] ?
74.1

I am curious: what CC50 value has been reported for CCC1C[N@@]2CCC1C[C@@H]2C(OC(=O)c1ccccc1Cl)c1ccnc2ccc(OC)cc12 (some centres unmarked) [ADS-J7] ?
41.3

----------
Listed below: CC50 values for each entry.
# assay.details: In vitro cytotoxicity, XTT
# Assay type: cell-based
# applied.conditions: human; 50% cytotoxic concentration, MT-2 cells, no virus; read-out: CC50 ± SD
# Method: The in vitro cytotoxicity for MT-2 cells of the compounds was determined in 96-well plates using the XTT dye to measure cell viability in the absence of virus. […] The percent cytotoxicity was calculated using the following formula: % cytotoxicity=[(E−N)/(P−N)]×100%, wherein “E” represents experimental data in the presence of compounds. […] The selectivity index (S.I.=CC50/IC50) for each compound was calculated.

Cc1ccc(N(C(=O)Nc2cccc(Cl)c2)C(C)c2nc3ccccc3c(=O)[nH]2)c(C)c1 (stereo not shown) ... 54 µg/mL

I am curious: what CC50 value has been reported for COC(=O)c1cc(C(=O)OC)cc(N(C(=O)Nc2ccc(Cl)c(Cl)c2)C(C)c2nc3ccccc3c(=O)n2Cc2ccccc2)c1 (stereo not shown) ?
20.9 µg/mL

I am curious: what CC50 value has been reported for Cc1ccc(N(C(=O)Nc2ccccc2)C(C)c2nc3ccccc3c(=O)[nH]2)c(C)c1 (stereo not shown) ?
40.8 µg/mL

----------
# assay.details: In vitro cytotoxicity, XTT
# Type: cell-based
# applied.conditions: human; 50% cytotoxic concentration, MT-2 cells, no virus; read-out: CC50 ± SD
Listed below: CC50 values for each entry.

I am curious: what CC50 value has been reported for `Cc1ccc(N=Nc2c(S(=O)(=O)O)cc3cc(S(=O)(=O)O)cc(Nc4nc(Cl)nc(Nc5ccccc5)n4)c3c2O)c(S(=O)(=O)O)c1` ?
290 µg/mL

I am curious: what CC50 value has been reported for CC(c1nc2ccc(Cl)cc2c(=O)n1Cc1ccccc1)N(C(=O)c1ccc([N+](=O)[O-])cc1)c1ccc(F)cc1 (stereo not shown) ?
30.2 µg/mL

I am curious: what CC50 value has been reported for CC(Nc1ccccc1Cl)c1nc2ccccc2c(=O)n1Cc1ccccc1 (stereo not shown) ?
86.8 µg/mL

I am curious: what CC50 value has been reported for `O=C(Nc1ccc(Cl)c(Cl)c1)O/N=C(/c1ccccc1)c1ccc(-c2ccccc2)cc1` ?
74.7 µg/mL
